Reference for the values: PubChem BioAssay (NCATS)

assay.procedure: HPAF-II Cancer Cell Toxicity qHTS against the NCATS CANVASS Library (AID 1347346); note: nearly all actives have a fitted effect of over 55% in size
condition.label: HPAF-II viability, CellTiter-Glo ATP luminescence, 72 h; series mostly up to 38.3 µM
Excerpt: Natural products and their derivatives continue to be wellsprings of nascent therapeutic potential. […] To address this issue, the Canvass library of natural products was assembled (https://tripod.nih.gov/canvass), in collaboration with academic and industry researchers, for quantitative high-throughput screening (qHTS) across a diverse set of cell-based and biochemical assays. […]
Records with an inconclusive call do not appear. Calls of active or inactive are those of the source. Calls come from the whole dose curve; as a rule, active = well fitted cell-killing curve with a large enough effect; inconclusive = small, poorly fitted or top-dose-only effect; inactive = flat fitted curve, though single readings scatter.
Result category, one only: active, inactive

molecule="COC1C(O)C(OC(N)=O)C(Oc2ccc3c(O)c(NC(=O)c4ccc(O)c(CC=C(C)C)c4)c(=O)oc3c2C)OC1(C)C (stereo unspecified)" label_class=inactive
molecule=C/C1=C/[C@@H](C)[C@H](O)C/C=C/CC/C=C/C(=O)O[C@@H]1[C@H](C)C(=O)/C=C/CC1CC(=O)NC(=O)C1 label_class=active
molecule=C1=C2CCCN[C@@H]2[C@@H]2CCN3CCCC[C@@H]3[C@H](C1)C2 label_class=inactive

Incoming: For O=Cc1ccc2n1C[C@@]1(C[C@H](O)[C@@H](CO)O1)OC2 , which call appears in the assay record?
Outgoing: inactive

Incoming: What do we get for CC1C(=O)C23CCC1C[C@]21O[C@@H]2C(C)(C)C=CC(=O)[C@@]23COC1=O (stereo partly specified) ?
Outgoing: inactive
